compounds and their reported HPLC purity difference
Experiment: Evaluation of solution stability, pH 7.4, 25° C.
Format: physicochemical
Details: phosphate buffer pH 7.4, about 1 mg/mL, 25° C., after about 1 day
Where a SMILES comes first, the peptide text is derived from it. [ ]: non-standard residue; d: D form. pY = N[C@@H](Cc1ccc(OP(=O)(O)O)cc1)C(=O)O; Dopa = N[C@@H](Cc1ccc(O)c(O)c1)C(=O)O

compound	HPLC purity difference / %
C[C@H](N)C(=O)N[C@@H](Cc1ccc(OP(=O)(O)O)c(O)c1)C(=O)O [Example 1]	−0.03
N[C@@H](Cc1ccc(OP(=O)(O)O)cc1)C(=O)N[C@@H](Cc1ccc(O)c(O)c1)C(=O)O [Example 10] (H-[pY]-[Dopa]-OH)	−0.67
N[C@@H](Cc1ccc(O)c(O)c1)C(=O)N[C@@H](Cc1ccc(OP(=O)(O)O)c(O)c1)C(=O)O [Example 2]	−3.53
C[C@H](N)C(=O)N[C@@H](Cc1ccc(O)c(O)c1)C(=O)O [LDP-Ala, L-Tyrosine,N-L-alanyl-3-hydroxy-(9CI), reference compound] (H-Ala-[Dopa]-OH)	−3.80
